System: Canis familiaris
test protocol: Dose normalized AUC in dog at 3 mg/kg, po
Format: ADME, organism-based, Canis lupus familiaris
Set-up: dose 3 mg/kg, route oral
experimental context: in vivo
assay metric: AUC

>>> df
                            molecule_smiles  experimental_system      measured_result
0  CN1CCN(c2cccc3nc(CN(C)[C@H]4CCCc5cccnc54)cn23)CC1     Canis familiaris  160 ng·h/mL/(mg/kg)

---

test protocol: Volume of distribution at steady state in dog at 1 mg/kg, iv
Format: ADME, organism-based, Canis lupus familiaris
Parameters: dose 1 mg/kg, route intravenous
experimental context: in vivo, read-out: Vdss
assay metric: Vd (L/kg)

                            molecule_smiles  measured_result
0  CN1CCN(c2cccc3nc(CN(C)[C@H]4CCCc5cccnc54)cn23)CC1              7.6

---

System: Rattus norvegicus
test protocol: Dose normalized AUC in rat at 3 mg/kg, po
Type: ADME, organism-based
Parameters: dose 3 mg/kg, route oral
experimental context: in vivo
assay metric: AUC

>>> print(df.to_string())
                            molecule_smiles  experimental_system      measured_result
0  CN1CCN(c2cccc3nc(CN(C)[C@H]4CCCc5cccnc54)cn23)CC1    Rattus norvegicus  100 ng·h/mL/(mg/kg)

---

Reported CC50 is given for each of the following molecules.
test protocol: Cytotoxicity against human HOS cells
Assay type: cell-based
assay metric: CC50 (µM)

                                    molecule  assay_metric  measured_result
 0  CN1CCN(c2cccc3nc(CN4CCCC5CCc6cccnc6C54)cn23)CC1 (racemic)          CC50              9.6
 1  CN(C)[C@@H]1CCN(c2cccc3nc(CN4CCC[C@H]5CCc6cccnc6[C@H]54)cn23)C1          CC50              1.6
 2  CN1CCN(c2cccc3nc(CN4CCC[C@@H]5CCc6cccnc6[C@H]54)cn23)CC1          CC50              9.9
 3  CN(C)C1CCN(c2cccc3nc(CN4CCC[C@H]5CCc6cccnc6[C@H]54)cn23)CC1          CC50             3.85
 4  CN(C)CCCn1c(CN2CCC[C@@H]3CCc4cccnc4[C@H]32)nc2ccccc21          CC50              3.5
 5  c1cnc2c(c1)CC[C@@H]1CCCN(Cc3cn4c(N5CCOCC5)cccc4n3)[C@H]21          CC50              6.6
 6  c1cnc2c(c1)CC[C@@H]1CCCN(Cc3cn4c(N5CCN6CCCC6C5)cccc4n3)[C@H]21 (some centres undefined)          CC50             2.98
 7  CN(C)CCCn1c(CN2CCC[C@H]3CCc4cccnc4[C@@H]32)nc2ccccc21          CC50              3.7
 8  CN1CCC(N(C)c2cccc3nc(CN4CCC[C@H]5CCc6cccnc6[C@H]54)cn23)CC1          CC50              1.3
 9  CN(C)CCN(C)c1cccc2nc(CN3CCC[C@H]4CCc5cccnc5[C@H]43)cn12          CC50             1.45
10  CN1CCC(N(C)c2cccc3nc(CN4CCC[C@H]5CCc6cccnc6[C@H]54)cn23)C1 (some centres undefined)          CC50             1.57
11  CN(C)CCCn1c(CN2CCC[C@@H]3CCc4cccnc4[C@@H]32)nc2ccccc21          CC50              4.2
12  CN1CCN(c2cccc3nc(CN4CCC[C@@H]5CCc6cccnc6[C@@H]54)cn23)CC1          CC50              8.5
13  CN(C)CCCn1c(CN2CCC[C@H]3CCc4cccnc4[C@H]32)nc2ccccc21          CC50                6

---

test protocol: Half life in rat at 3 mg/kg, po
Format: ADME, organism-based
Set-up: dose 3 mg/kg, route oral
experimental context: in vivo
assay metric: half-life (h)

>>> df
                            molecule_smiles  readout_unit  measured_result
0  CN1CCN(c2cccc3nc(CN(C)[C@H]4CCCc5cccnc54)cn23)CC1             h              4.9
